# tested_on: sodium ion channel of Trpm5 bitter receptor (Mus musculus, UniProt Q9JJH7)
# Construct: Put the removed tongue in a 2 ml EP tube, add 1-1.5 ml of 0.25% trypsin solution; from tissue; host or cells: cells dissociated with trypsin from mouse tongue
# Sequence (Q9JJH7 whole entry): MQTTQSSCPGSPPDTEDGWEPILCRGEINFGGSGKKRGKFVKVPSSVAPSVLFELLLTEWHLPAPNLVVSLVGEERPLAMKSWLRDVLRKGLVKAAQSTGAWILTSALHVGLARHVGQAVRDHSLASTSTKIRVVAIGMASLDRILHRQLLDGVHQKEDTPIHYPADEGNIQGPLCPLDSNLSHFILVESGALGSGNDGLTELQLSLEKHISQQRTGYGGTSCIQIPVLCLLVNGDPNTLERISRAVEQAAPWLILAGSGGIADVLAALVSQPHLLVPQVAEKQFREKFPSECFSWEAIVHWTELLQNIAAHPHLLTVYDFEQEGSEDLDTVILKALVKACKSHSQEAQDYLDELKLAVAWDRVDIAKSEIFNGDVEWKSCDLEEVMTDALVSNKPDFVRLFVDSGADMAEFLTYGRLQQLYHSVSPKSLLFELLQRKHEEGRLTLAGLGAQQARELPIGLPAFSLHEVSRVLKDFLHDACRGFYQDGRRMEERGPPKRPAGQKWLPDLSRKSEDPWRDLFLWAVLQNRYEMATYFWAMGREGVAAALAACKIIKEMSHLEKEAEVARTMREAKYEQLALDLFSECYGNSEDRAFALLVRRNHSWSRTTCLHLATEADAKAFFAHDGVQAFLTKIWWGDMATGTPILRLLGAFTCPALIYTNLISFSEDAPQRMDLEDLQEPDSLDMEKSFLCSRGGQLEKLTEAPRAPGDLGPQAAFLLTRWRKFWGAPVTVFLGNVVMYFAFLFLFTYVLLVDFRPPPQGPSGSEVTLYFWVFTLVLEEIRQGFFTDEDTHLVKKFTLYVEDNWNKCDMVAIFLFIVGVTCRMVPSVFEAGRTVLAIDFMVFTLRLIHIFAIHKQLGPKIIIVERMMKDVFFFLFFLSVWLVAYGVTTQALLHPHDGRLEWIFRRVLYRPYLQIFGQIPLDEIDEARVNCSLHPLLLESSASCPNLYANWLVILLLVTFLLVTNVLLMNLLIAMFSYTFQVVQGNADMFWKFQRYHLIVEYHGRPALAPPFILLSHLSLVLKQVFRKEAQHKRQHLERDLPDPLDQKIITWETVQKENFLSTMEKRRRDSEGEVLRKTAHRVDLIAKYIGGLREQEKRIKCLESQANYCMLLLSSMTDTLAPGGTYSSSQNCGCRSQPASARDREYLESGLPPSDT
# method_summary: Immunofluorescence experiment of sodium ion channels in mouse tongue cells stimulated with bitter agent
# Type: cell-based, mice
# cond: Bitterant 120 s (2% metronidazole solution)
# note: exactly -0.6 is not below, so it is n; use y for average value of fluorescence brightness, base number removed strictly under it

INSERT INTO assay_data (molecule, class_assignment) VALUES
  ('CCCCC[C@H](O)CC(=O)CCc1ccc(O)c(OC)c1', 'n'),
  ('CC1CCC(C(C)C)C(O)C1 (centres unmarked)', 'y'),
  ('O=P(c1ccccc1)(c1ccccc1)c1ccccc1 [Triphenylphosphine oxide, reference compound]', 'y'),
  ('CC1CCC(C(C)C)C(OC(=O)C(C)O)C1 (centres unmarked) [Menthyl lactate]', 'y'),
  ('C=CCc1ccc(OC(C)=O)c(OC)c1 [Eugenol acetate]', 'y'),
  ('CC(C)[C@@H]1CC[C@@H](C)C[C@H]1OC(=O)CCC(=O)O [Menthyl succinate]', 'n'),
  ('CC1CCC(C(C)C)C(=O)C1 (centres unmarked)', 'n'),
  ('CC(C)=CCCC(C)=CC=O', 'n');

These entries and their values trace back to patent US20250108023A1.
